Task for the reader: assign each of the following compounds its reported Rate enhancement, Cdk2 WT.
Target: human cyclin-dependent kinase 2 (Cdk2) (Homo sapiens)
Construct: poly-histidine; made in house; host or cells: E. coli
Test: Kinetic thiol consumption assay with wild type Cdk2 (C177)
Format: binding
Parameters: key: k(Cdk2) divided by k(model thiol)
Conditions: Cdk2 WT, no additional mutations

Measured Rate enhancement, Cdk2 WT, "C=CC(=O)N1CCN(Cc2noc(C3CC3)n2)CC1" : 0.2968

For "O=C(CCl)N1CCCCCC1" the compound record lists Rate enhancement, Cdk2 WT as 0.6051

Note to self: Rate enhancement, Cdk2 WT recorded for "Cn1cc(S(=O)(=O)N2CCOCC2)cc1C(=O)NC(=O)CCl" was 1.276

Looking up "C=CC(=O)N(c1ccc2c(c1)OCCO2)C1CC1" , I see its Rate enhancement, Cdk2 WT listed as 0.4756

response.value for "C=CC(=O)Nc1ccc(C23CC4CC(CC(O)(C4)C2)C3)cc1" (field: Rate enhancement, Cdk2 WT) = 1.123

Field Rate enhancement, Cdk2 WT (entry CC1CN(C(=O)CCl)CC(C)O1 (stereo not drawn) ) reads 1.086

The compound listed as C=CC(=O)N1CC2CN(Cc3ccccc3)CC2C1 (stereo not drawn) has a reported Rate enhancement, Cdk2 WT of 0.3633

The compound listed as "C=CC(=O)N(Cc1ccco1)Cc1ccco1" shows Rate enhancement, Cdk2 WT equal to 1.366

Looking up C=CC(=O)N1CCC2(CC1)CC2C(=O)OC (stereo not drawn) , I see its Rate enhancement, Cdk2 WT listed as 0.2802

Entry C=CC(=O)N1CCCCCC1c1cccs1 (stereo not drawn) , Rate enhancement, Cdk2 WT reported as 0.8082

# Rate enhancement, Cdk2 WT of "C=CC(=O)NC1CCN(Cc2ccccc2)CC1" = 0.1591

The reported Rate enhancement, Cdk2 WT of the compound "C=CC(=O)Nc1ccccc1C#N" was 3.342

---

Target: Cdk2(S181C) (C177A) (Homo sapiens, UniProt P24941, C177A/S181C)
Construct: poly-histidine; made in house; host or cells: E. coli
Test: Kinetic thiol consumption assay with Cdk2 mutant S181C
Format: binding
Set-up: key: rate constant with Cdk2 ÷ rate constant with model thiol (fold)
Settings: Cdk2 S181C, additional mutation C177A
Exercise: for every item that follows, state its recorded Rate enhancement, Cdk2 S181C.
I only need the number, thanks.

The reported value for "CN(C#N)Cc1ccccc1" in terms of Rate enhancement, Cdk2 S181C is 0.6302

So, "C=CC(=O)N1CCC(c2nc3ccccc3[nH]2)CC1" ? Its Rate enhancement, Cdk2 S181C was 0.9565

# Rate enhancement, Cdk2 S181C of C=CC(=O)N1CCn2c(C(=O)NC3CC3)ccc2C1C (centres unmarked) = 0.247

Noted for "C=CC(=O)Nc1sc2c(c1C(=O)NC1CC1)CCC2" : its Rate enhancement, Cdk2 S181C reads 0.7715

Reported Rate enhancement, Cdk2 S181C ( "C=CC(=O)Nc1cccc(-c2nnnn2C2CC2)c1" ) = 1.069

# molecule "C=CC(=O)N(Cc1ccco1)Cc1ccco1" ; its Rate enhancement, Cdk2 S181C = 1.479

Note to self: Rate enhancement, Cdk2 S181C recorded for C=CC(=O)NC(C)c1ccc2c(c1)OCO2 (centres unmarked) was 0.6373

// Rate enhancement, Cdk2 S181C value for C=CC(=O)N1CCc2sccc2C1c1cccs1 (centres unmarked) : 2.069

So for C=CC(=O)N1CCCCCC1c1ccc(N(C)C)cc1 (centres unmarked) , the logged Rate enhancement, Cdk2 S181C turned out to be 0.6713

The molecule listed as "FC(F)(F)c1cc(Cl)ncc1Br" has a reported Rate enhancement, Cdk2 S181C of 0.02434

For this molecule ( C=CC(=O)NC(C)c1cc(OC)c(OC)c(OC)c1 (centres unmarked) ), measured Rate enhancement, Cdk2 S181C is 0.396
